Target: DNA-PK (Homo sapiens (Human))
Test: DNA-PK Enzyme-Linked Immunosorbent Assay (phosphorylation of GST-p53 (1-101) peptide)
Type: biochemical
Settings: ELISA, ATP 20 μM
Counter-ions that a name gives are not always drawn.
reported endpoint: IC50

# IC50 lookup, item Cc1cc(S(=O)(=O)Nc2cc(-c3ccc4ncc5c(c4c3)C3(CCC3)C(=O)N5C)cnc2N2CCC(N(C)C)CC2)sn1
0.5 to 1 nM

Fill blank: measured IC50 of the molecule CN(C)CCCOc1ccc(-c2ccc3ncc4c(c3c2)C2(CC2)C(=O)N4C)cn1 is ____.
1 to 100 nM

# input molecule: Cc1ccc(S(=O)(=O)Nc2cc(-c3ccc4ncc5c(c4c3)C3(CCC3)C(=O)N5C)cnc2N2CCC(N3CCCCC3)CC2)cc1 [Example 192, hydrochloride] ; wanted: its IC50
1 to 100 nM

Given COCCN(C)CCCOc1ncc(-c2ccc3ncc4c(c3c2)C2(CCC2)C(=O)N4C)cc1NS(C)(=O)=O , state its recorded IC50.
1 to 100 nM

Please give the measured IC50 for this molecule: CN(C)CCCCOc1ncc(-c2ccc3ncc4c(c3c2)C2(CC2)C(=O)N4C)cc1NS(=O)(=O)C1CC1
1 to 100 nM

---

Molecular target: ATM (Homo sapiens (Human), UniProt Q13315)
Sequence (Q13315 whole entry): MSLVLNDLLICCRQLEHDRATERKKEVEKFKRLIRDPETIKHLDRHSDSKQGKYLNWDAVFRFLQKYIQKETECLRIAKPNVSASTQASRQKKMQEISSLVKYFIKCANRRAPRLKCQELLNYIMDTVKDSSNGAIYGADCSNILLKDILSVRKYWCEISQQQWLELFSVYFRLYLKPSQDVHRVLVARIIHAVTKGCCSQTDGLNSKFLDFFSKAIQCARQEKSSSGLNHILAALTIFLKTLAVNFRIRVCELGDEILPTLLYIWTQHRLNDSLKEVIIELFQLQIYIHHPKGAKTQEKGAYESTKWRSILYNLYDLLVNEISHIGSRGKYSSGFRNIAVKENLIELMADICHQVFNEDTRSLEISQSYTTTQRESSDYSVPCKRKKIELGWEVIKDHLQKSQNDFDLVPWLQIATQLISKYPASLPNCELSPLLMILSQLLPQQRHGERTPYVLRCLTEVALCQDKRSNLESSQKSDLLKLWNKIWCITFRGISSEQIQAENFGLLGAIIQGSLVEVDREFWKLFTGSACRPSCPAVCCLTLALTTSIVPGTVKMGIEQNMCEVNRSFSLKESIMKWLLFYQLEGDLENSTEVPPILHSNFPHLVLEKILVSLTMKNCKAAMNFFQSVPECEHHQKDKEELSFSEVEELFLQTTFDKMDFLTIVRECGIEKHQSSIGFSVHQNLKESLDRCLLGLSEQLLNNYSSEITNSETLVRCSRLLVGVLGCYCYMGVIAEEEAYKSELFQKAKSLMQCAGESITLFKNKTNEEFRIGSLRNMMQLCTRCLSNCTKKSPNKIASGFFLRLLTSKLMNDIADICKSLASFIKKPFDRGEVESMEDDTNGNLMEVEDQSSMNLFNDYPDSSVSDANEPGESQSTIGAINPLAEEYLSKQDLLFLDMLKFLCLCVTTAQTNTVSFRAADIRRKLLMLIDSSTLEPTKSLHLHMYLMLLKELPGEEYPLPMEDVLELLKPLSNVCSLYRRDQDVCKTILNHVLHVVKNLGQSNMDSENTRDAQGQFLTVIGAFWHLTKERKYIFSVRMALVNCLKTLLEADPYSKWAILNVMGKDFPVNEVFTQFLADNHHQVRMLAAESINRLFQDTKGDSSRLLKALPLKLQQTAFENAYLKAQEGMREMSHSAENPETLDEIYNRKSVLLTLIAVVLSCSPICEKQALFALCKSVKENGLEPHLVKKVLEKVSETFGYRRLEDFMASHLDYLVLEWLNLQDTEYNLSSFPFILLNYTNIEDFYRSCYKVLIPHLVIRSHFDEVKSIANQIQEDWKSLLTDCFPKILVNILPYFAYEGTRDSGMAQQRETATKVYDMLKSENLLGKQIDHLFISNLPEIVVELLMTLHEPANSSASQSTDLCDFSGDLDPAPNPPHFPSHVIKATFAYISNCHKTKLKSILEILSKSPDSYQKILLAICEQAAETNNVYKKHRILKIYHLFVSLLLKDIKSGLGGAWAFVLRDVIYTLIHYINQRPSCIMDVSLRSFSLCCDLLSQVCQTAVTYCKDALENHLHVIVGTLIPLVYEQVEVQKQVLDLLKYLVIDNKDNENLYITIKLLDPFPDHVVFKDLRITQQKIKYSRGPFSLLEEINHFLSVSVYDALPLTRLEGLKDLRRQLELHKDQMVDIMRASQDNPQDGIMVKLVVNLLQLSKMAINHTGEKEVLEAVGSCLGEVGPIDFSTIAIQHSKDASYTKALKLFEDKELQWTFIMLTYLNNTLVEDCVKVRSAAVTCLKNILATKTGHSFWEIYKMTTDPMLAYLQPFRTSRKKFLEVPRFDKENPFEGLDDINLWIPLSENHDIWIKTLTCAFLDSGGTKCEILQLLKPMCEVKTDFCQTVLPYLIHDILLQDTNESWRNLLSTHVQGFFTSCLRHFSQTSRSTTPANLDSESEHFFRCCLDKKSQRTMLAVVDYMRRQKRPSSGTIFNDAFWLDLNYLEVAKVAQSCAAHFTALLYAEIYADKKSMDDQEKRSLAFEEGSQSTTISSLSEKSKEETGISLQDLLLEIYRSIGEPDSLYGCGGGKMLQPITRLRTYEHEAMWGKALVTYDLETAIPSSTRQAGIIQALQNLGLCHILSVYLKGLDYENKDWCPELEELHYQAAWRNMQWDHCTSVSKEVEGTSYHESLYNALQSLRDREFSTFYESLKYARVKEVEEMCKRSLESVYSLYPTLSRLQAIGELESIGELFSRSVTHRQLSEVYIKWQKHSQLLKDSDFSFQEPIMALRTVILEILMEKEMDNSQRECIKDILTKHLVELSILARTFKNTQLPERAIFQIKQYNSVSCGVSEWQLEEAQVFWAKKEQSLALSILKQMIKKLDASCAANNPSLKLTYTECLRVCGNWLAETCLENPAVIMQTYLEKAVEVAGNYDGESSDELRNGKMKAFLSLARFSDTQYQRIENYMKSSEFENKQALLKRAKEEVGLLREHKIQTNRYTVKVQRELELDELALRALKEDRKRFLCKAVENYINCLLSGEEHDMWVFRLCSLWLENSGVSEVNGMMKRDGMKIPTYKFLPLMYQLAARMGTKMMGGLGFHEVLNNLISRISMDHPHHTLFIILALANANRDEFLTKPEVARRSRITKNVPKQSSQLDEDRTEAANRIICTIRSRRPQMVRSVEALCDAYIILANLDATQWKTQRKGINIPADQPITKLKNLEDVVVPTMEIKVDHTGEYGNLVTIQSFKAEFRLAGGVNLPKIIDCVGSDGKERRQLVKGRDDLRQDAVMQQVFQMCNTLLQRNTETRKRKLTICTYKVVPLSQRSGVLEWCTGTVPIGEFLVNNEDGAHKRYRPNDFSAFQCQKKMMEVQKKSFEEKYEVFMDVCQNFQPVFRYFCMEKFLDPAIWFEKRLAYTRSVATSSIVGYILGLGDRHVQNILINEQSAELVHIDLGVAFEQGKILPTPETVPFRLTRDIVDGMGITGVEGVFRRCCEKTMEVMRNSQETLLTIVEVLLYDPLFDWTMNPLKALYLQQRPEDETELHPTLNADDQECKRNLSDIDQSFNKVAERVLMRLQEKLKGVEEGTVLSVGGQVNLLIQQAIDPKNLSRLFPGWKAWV
Experiment: ATM in Cell Western Assay (pKAP1 in etoposide-treated MCF-7 cells)
Assay type: cell-based
Details: pKAP1 in etoposide-treated MCF-7 cells
pIC50: −log10 of the molar value. Structures can show the parent of a compound that is named as a salt.
reported endpoint: pIC50

Would you please look over these solved cases?
{"columns": ["compound", "reported endpoint", "result"],
 "data": [
  ["CN1C(=O)C2(CCC2)c2c1cnc1ccc(-c3cnc(N4CC5CC(C4)N5)c(NS(C)(=O)=O)c3)cc21 [Example 360, formate]", "pIC50", "< 7.00"],
  ["CC(C)NCCOc1ncc(-c2cc3c4c(cnc3cc2F)N(C)C(=O)C42CN(C3CCNCC3)C2)cc1NS(C)(=O)=O [Example 501]", "pIC50", "< 7.00"]
]}

Then this compound:
Item under review: CC(C)NCCOc1ncc(-c2cc3c4c(cnc3cc2F)N(C)C(=O)C42CN(C3CCOCC3)C2)cc1NS(C)(=O)=O [Example 500, hydrochloride] . Reported pIC50?
7.00 to 9.00

---

Molecular target: ATM (Homo sapiens (Human), UniProt Q13315)
Assay: ATM in Cell Western Assay (pKAP1 in etoposide-treated MCF-7 cells)
Format: cell-based
Conditions: MCF-7 cells, etoposide 100 μM, 1 hr, pKAP1 readout
Counter-ions that a name gives are not always drawn.
Examples of compounds with documented IC50 follow.

{"columns": ["compound", "measured target", "IC50"],
 "data": [
  ["COc1ccc(S(=O)(=O)Nc2cc(-c3ccc4ncc5c(c4c3)C3(CCC3)C(=O)N5C)cnc2OCCCN(C)C)cn1 [Example 133, hydrochloride]", "ATM (Homo sapiens (Human), UniProt Q13315)", "1 to 100 nM"],
  ["CN1C(=O)C2(CCC2)c2c1cnc1ccc(-c3cnc(OCCCN4CCCCC4)c(NS(C)(=O)=O)c3)cc21", "ATM (Homo sapiens (Human), UniProt Q13315)", "1 to 100 nM"]
]}

Given the entry CN1C(=O)C2(CC2)c2c1cnc1ccc(-c3cnc(OCCC[N+](C)(C)[O-])c(NS(=O)(=O)c4ccccc4)c3)cc21 , what IC50 was observed with ATM (Homo sapiens (Human), UniProt Q13315)?
1 to 100 nM
